biological target: Alpha-ketoglutarate-dependent dioxygenase FTO (Homo sapiens, UniProt Q9C0B1); test: Inhibition of FTO (32 to 505 residues) (unknown origin) extracted from Escherichia coli BL21 (DE3) cells by fluorescence polarization assay
Sequence (Q9C0B1 whole entry, the tested form may be a part): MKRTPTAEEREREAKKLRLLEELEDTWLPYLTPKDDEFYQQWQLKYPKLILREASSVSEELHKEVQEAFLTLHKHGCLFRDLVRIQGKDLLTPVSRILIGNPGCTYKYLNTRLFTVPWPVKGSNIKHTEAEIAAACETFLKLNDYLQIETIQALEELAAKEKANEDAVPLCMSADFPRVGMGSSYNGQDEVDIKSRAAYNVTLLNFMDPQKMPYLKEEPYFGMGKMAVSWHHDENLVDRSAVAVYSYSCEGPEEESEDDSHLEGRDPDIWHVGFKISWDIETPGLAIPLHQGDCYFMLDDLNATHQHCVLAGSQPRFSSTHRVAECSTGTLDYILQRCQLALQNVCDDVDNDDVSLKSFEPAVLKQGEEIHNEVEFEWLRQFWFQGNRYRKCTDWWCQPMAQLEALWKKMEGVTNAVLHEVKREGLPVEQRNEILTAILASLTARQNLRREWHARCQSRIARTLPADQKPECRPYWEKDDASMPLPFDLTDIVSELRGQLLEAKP

[
  {
    "entry-smiles": "O=Cc1cc(S(=O)(=O)NC(=O)c2cc(C(=O)O)ccn2)c2ccccc2c1O",
    "IC50 / µM": 14.2
  }
]

###

target: RNA demethylase ALKBH5 (Homo sapiens, UniProt Q6P6C2); test: Inhibition of ALKBH5 (66 to 292 residues) (unknown origin) extracted from Escherichia coli BL21 (DE3) cells using m6A ssDNA as substrate measured after 6 hrs by fluorescence polarization assay
Sequence (Q6P6C2 whole entry, the tested form may be a part): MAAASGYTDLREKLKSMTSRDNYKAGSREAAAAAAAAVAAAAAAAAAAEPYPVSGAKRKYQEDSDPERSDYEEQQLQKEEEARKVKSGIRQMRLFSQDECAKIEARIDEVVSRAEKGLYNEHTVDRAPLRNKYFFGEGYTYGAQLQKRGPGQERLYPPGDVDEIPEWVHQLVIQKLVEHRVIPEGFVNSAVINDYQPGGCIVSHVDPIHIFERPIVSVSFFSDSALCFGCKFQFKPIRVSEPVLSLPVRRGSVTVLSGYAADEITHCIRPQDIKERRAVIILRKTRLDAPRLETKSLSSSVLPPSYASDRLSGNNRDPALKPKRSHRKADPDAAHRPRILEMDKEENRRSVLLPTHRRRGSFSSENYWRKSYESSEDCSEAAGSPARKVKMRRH
readout-name: IC50

[
  {
    "entry-smiles": "N#Cc1ccccc1S(=O)(=O)NC(=O)c1cc(C(=O)O)ccn1",
    "system-tested": "RNA demethylase ALKBH5 (Homo sapiens, UniProt Q6P6C2)",
    "result-value": "> 200 µM"
  },
  {
    "entry-smiles": "N#Cc1cccc(S(=O)(=O)NC(=O)c2cc(C(=O)O)ccn2)c1",
    "system-tested": "RNA demethylase ALKBH5 (Homo sapiens, UniProt Q6P6C2)",
    "result-value": "> 200 µM"
  },
  {
    "entry-smiles": "COc1ccc(S(=O)(=O)NC(=O)c2cc(C(=O)O)ccn2)cc1",
    "system-tested": "RNA demethylase ALKBH5 (Homo sapiens, UniProt Q6P6C2)",
    "result-value": "19.1 µM"
  }
]

###

molecular target: RNA demethylase ALKBH5 (Homo sapiens); test: Inhibition of ALKBH5 (66 to 292 residues) (unknown origin) extracted from Escherichia coli BL21 (DE3) cells using m6A ssDNA as substrate measured after 2 hrs by fluorescence polarization assay
readout-name: IC50 (µM)

[
  {
    "entry-smiles": "O=C(CCl)Nc1cccc(S(=O)(=O)NC(=O)c2cc(C(=O)O)ccn2)c1",
    "display-unit": "µM",
    "result-value": 10.4
  },
  {
    "entry-smiles": "C=CC(=O)Nc1cccc(S(=O)(=O)NC(=O)c2cc(C(=O)O)ccn2)c1",
    "display-unit": "µM",
    "result-value": 3.97
  },
  {
    "entry-smiles": "O=C(O)c1ccnc(C(=O)NS(=O)(=O)c2ccccc2)c1",
    "display-unit": "µM",
    "result-value": 52.1
  },
  {
    "entry-smiles": "C=CC(=O)Nc1ccccc1S(=O)(=O)NC(=O)c1cc(C(=O)O)ccn1",
    "display-unit": "µM",
    "result-value": 19.2
  },
  {
    "entry-smiles": "O=Cc1cc(S(=O)(=O)NC(=O)c2cc(C(=O)O)ccn2)ccc1O",
    "display-unit": "µM",
    "result-value": 0.45
  },
  {
    "entry-smiles": "O=C(CCl)Nc1ccccc1S(=O)(=O)NC(=O)c1cc(C(=O)O)ccn1",
    "display-unit": "µM",
    "result-value": 10.8
  },
  {
    "entry-smiles": "CC(=O)c1cc(S(=O)(=O)NC(=O)c2cc(C(=O)O)ccn2)ccc1O",
    "display-unit": "µM",
    "result-value": 4.38
  },
  {
    "entry-smiles": "O=Cc1cc(S(=O)(=O)NC(=O)c2cc(C(=O)O)ccn2)c2ccccc2c1O",
    "display-unit": "µM",
    "result-value": 0.35
  },
  {
    "entry-smiles": "CC(=O)c1cc(S(=O)(=O)NC(=O)c2cc(C(=O)O)ccn2)c2ccccc2c1O",
    "display-unit": "µM",
    "result-value": 5.52
  }
]

###

molecular target: RNA demethylase ALKBH5 (Homo sapiens); test: Inhibition of ALKBH5 (66 to 292 residues) (unknown origin) extracted from Escherichia coli BL21 (DE3) cells using m6A ssDNA as substrate measured immediately by fluorescence polarization assay
readout-name: log10 IC50 (log10 of the value in µM)

[
  {
    "entry-smiles": "C=CC(=O)Nc1ccccc1S(=O)(=O)NC(=O)c1cc(C(=O)O)ccn1",
    "readout-name": "log10 IC50",
    "result-value": 1.33
  },
  {
    "entry-smiles": "C=CC(=O)Nc1cccc(S(=O)(=O)NC(=O)c2cc(C(=O)O)ccn2)c1",
    "readout-name": "log10 IC50",
    "result-value": 0.87
  },
  {
    "entry-smiles": "CC(=O)c1cc(S(=O)(=O)NC(=O)c2cc(C(=O)O)ccn2)ccc1O",
    "readout-name": "log10 IC50",
    "result-value": 1.17
  },
  {
    "entry-smiles": "O=Cc1cc(S(=O)(=O)NC(=O)c2cc(C(=O)O)ccn2)ccc1O",
    "readout-name": "log10 IC50",
    "result-value": 0.53
  },
  {
    "entry-smiles": "O=Cc1cc(S(=O)(=O)NC(=O)c2cc(C(=O)O)ccn2)c2ccccc2c1O",
    "readout-name": "log10 IC50",
    "result-value": 0.16
  }
]

###

Each item that follows carries a reported IC50.
molecular target: RNA demethylase ALKBH5 (Homo sapiens, UniProt Q6P6C2); experiment: Inhibition of ALKBH5 (66 to 292 residues) (unknown origin) extracted from Escherichia coli BL21 (DE3) cells using m6A ssDNA as substrate measured after 6 hrs by fluorescence polarization assay

[
  {
    "entry-smiles": "O=C(O)c1ccnc(C(=O)NS(=O)(=O)c2ccc3ccccc3c2)c1",
    "system-tested": "RNA demethylase ALKBH5 (Homo sapiens, UniProt Q6P6C2)",
    "IC50": "15.2 µM"
  },
  {
    "entry-smiles": "O=C(O)c1ccnc(C(=O)NS(=O)(=O)c2ccccc2)c1",
    "system-tested": "RNA demethylase ALKBH5 (Homo sapiens, UniProt Q6P6C2)",
    "IC50": "56.8 µM"
  },
  {
    "entry-smiles": "O=C(O)c1cccc(C(=O)NS(=O)(=O)c2ccccc2[N+](=O)[O-])c1",
    "system-tested": "RNA demethylase ALKBH5 (Homo sapiens, UniProt Q6P6C2)",
    "IC50": "> 200 µM"
  },
  {
    "entry-smiles": "O=C(O)c1ccnc(C(=O)NS(=O)(=O)c2ccccc2C(F)(F)F)c1",
    "system-tested": "RNA demethylase ALKBH5 (Homo sapiens, UniProt Q6P6C2)",
    "IC50": "> 200 µM"
  },
  {
    "entry-smiles": "O=C(O)c1ccnc(C(=O)NS(=O)(=O)c2cccc3ccccc23)c1",
    "system-tested": "RNA demethylase ALKBH5 (Homo sapiens, UniProt Q6P6C2)",
    "IC50": "12.7 µM"
  }
]

###

target: Alpha-ketoglutarate-dependent dioxygenase FTO (Homo sapiens, UniProt Q9C0B1)
pKd: −log10 of the molar value.

[
  {
    "entry-smiles": "O=Cc1cc(S(=O)(=O)NC(=O)c2cc(C(=O)O)ccn2)c2ccccc2c1O",
    "system-tested": "Alpha-ketoglutarate-dependent dioxygenase FTO (Homo sapiens, UniProt Q9C0B1)",
    "pKd": 4.56
  }
]

###

molecular target: RNA demethylase ALKBH5 (Homo sapiens); test: Inhibition of ALKBH5 (66 to 292 residues) (unknown origin) extracted from Escherichia coli BL21 (DE3) cells using m6A ssDNA as substrate measured after 300 mins by fluorescence polarization assay
readout-name: IC50 (nM)

[
  {
    "entry-smiles": "O=Cc1cc(S(=O)(=O)NC(=O)c2cc(C(=O)O)ccn2)c2ccccc2c1O",
    "system-tested": "RNA demethylase ALKBH5 (Homo sapiens)",
    "result-value": 200
  }
]

###

biological target: RNA demethylase ALKBH5 (Homo sapiens); experiment: Inhibition of ALKBH5 (66 to 292 residues) (unknown origin) extracted from Escherichia coli BL21 (DE3) cells using m6A ssDNA as substrate measured after 6 hrs by fluorescence polarization assay
pIC50: −log10 of the molar value.
Below: a set of entries, each annotated with reported pIC50.

[
  {
    "entry-smiles": "O=C(O)c1ccnc(C(=O)NS(=O)(=O)c2cccc(-c3ccccc3)c2)c1",
    "censor-symbol": "=",
    "pIC50": 4.82
  },
  {
    "entry-smiles": "O=C(O)c1ccnc(C(=O)NS(=O)(=O)c2ccc(-c3ccccc3)cc2)c1",
    "censor-symbol": "=",
    "pIC50": 4.78
  },
  {
    "entry-smiles": "N#Cc1ccc(S(=O)(=O)NC(=O)c2cc(C(=O)O)ccn2)cc1",
    "censor-symbol": "=",
    "pIC50": 4.40
  },
  {
    "entry-smiles": "O=C(O)c1ccnc(C(=O)NCc2ccccc2[N+](=O)[O-])c1",
    "censor-symbol": "<",
    "pIC50": 3.70
  }
]
